assay: qHTS for Inhibitors of Inflammasome Signaling: IL-1-beta AlphaLISA Primary Screen; conditions: THP-1 LPS/ATP IL-1B secretion, 16 h; at 57.5 µM, stronger effect = lower value; note: % is set by controls: 0 for no effect and ±100 for the full control effect
In all, about 360,000 compounds went through this assay and about 17,000 (4.7%) were called active. Inconclusive results (about 5%) are left out. What follows is part of a selection rich in actives, with near analogues and random picks from the rest.
Recorded activity change values for a group of compounds are listed next.
Number in %, nothing else.

Here are 5 compounds together with their reported answers.
INSERT INTO results (compound, numeric_result) VALUES
  ('CCOc1ccc(-n2c(SCC(=O)Nc3ccc(OC)cc3)nc3sc4c(c3c2=O)CCN(C)C4)cc1', -16),
  ('C=CCSc1nc(Cc2ccc(Cl)cc2)nc2ccccc12', -12.9),
  ('COc1ccccc1NC(=O)CSc1nc2sc3c(c2c(=O)n1-c1ccccc1)CCN(C)C3', -4.77),
  ('CCOC(=O)C1=CCC2C(=O)N(Cc3ccccc3)C(=O)C12 (stereo not drawn)', 3.12),
  ('CCN1CCN(C(=O)C2CCN(S(=O)(=O)c3cc(Cl)ccc3Cl)CC2)CC1', 24.2);

Enquiry: Give its activity change value. Item: "Oc1c(CN2CCOCC2)ccc(CN2CCOCC2)c1O"
Return: 14.4

Enquiry: Same question for "CSc1ccc(CCNC(=O)CS(=O)(=O)Cc2nc(-c3ccccc3F)oc2C)cc1" please.
Return: 9.85

Enquiry: Same question for "CCCNC(=O)CSc1nc(Cc2ccccc2)nc2ccccc12" please.
Return: -58.7

Enquiry: Same question for "C[C@H](CO)N1C[C@H](C)[C@H](CN(C)C(=O)c2ccncc2)OCc2ccccc2-c2c(n(C)c3ccccc23)C1=O" please.
Return: 42.4

Enquiry: Same question for "CCOC(=O)C1(CCOC)CCN(Cc2cc3ccccc3s2)CC1" please.
Return: -8.97

Enquiry: Same question for "O=C(CSc1nc(Nc2ccccc2)nc(N2CCOCC2)n1)Nc1cc(Cl)ccc1O" please.
Return: -58.1

Enquiry: Same question for "Cc1ccc(NC(=O)O/N=C/c2cccc([N+](=O)[O-])c2)cc1" please.
Return: -1.61

Enquiry: Same question for "Cc1nc(N2CCN(c3ccccn3)CC2)c2c(C)c(C(=O)Nc3ccc(F)cc3)sc2n1" please.
Return: -76.8

Enquiry: Same question for "CSc1nc2ccc(NC(=O)c3c(F)cccc3F)cc2s1" please.
Return: -101
